# Test system: P388 murine leukemia cells
# assay.summary: Malignant cell cytotoxicity, continuous 48-hour exposure (Coulter Counter)
# Assay type: cell-based
# stated.conditions: Mus musculus, read-out: IC50 P388 cont. exp.
reported.endpoint: IC50 (µM)
Give bare numbers, in µM.

Answered examples (3):
smiles_input=Cc1cc(-c2c(F)cc3c(=O)c(Cc4ccncc4)cn(C4CC4)c3c2F)cc(C)n1 test_system="P388 murine leukemia cells" reported_endpoint=IC50 experimental_value=2.3
smiles_input=Cc1cc(-c2c(F)cc3c(=O)c(Cc4ccc(Cl)cc4)cn(C4CC4)c3c2F)cc(C)n1 test_system="P388 murine leukemia cells" reported_endpoint=IC50 experimental_value=6.1
smiles_input=Cc1cc(-c2c(F)cc3c(=O)c(Cc4cccc(O)c4O)cn(C4CC4)c3c2F)cc(C)n1 test_system="P388 murine leukemia cells" reported_endpoint=IC50 experimental_value=0.32

Attention now shifts to the item below.
Memo: COc1ccccc1Cc1cn(C2CC2)c2c(F)c(-c3cc(C)nc(C)c3)c(F)cc2c1=O , reported IC50: 6.9

====

# test.system: human topoisomerase II (Homo sapiens, UniProt P11388)
# Construct: Topo II was purified from late log phase suspension cultures of HeLa WIS; endogenous in cells; host or cells: HeLa WIS suspension cultures, late log phase (enzyme purified from the cells)
# Sequence (P11388 whole entry): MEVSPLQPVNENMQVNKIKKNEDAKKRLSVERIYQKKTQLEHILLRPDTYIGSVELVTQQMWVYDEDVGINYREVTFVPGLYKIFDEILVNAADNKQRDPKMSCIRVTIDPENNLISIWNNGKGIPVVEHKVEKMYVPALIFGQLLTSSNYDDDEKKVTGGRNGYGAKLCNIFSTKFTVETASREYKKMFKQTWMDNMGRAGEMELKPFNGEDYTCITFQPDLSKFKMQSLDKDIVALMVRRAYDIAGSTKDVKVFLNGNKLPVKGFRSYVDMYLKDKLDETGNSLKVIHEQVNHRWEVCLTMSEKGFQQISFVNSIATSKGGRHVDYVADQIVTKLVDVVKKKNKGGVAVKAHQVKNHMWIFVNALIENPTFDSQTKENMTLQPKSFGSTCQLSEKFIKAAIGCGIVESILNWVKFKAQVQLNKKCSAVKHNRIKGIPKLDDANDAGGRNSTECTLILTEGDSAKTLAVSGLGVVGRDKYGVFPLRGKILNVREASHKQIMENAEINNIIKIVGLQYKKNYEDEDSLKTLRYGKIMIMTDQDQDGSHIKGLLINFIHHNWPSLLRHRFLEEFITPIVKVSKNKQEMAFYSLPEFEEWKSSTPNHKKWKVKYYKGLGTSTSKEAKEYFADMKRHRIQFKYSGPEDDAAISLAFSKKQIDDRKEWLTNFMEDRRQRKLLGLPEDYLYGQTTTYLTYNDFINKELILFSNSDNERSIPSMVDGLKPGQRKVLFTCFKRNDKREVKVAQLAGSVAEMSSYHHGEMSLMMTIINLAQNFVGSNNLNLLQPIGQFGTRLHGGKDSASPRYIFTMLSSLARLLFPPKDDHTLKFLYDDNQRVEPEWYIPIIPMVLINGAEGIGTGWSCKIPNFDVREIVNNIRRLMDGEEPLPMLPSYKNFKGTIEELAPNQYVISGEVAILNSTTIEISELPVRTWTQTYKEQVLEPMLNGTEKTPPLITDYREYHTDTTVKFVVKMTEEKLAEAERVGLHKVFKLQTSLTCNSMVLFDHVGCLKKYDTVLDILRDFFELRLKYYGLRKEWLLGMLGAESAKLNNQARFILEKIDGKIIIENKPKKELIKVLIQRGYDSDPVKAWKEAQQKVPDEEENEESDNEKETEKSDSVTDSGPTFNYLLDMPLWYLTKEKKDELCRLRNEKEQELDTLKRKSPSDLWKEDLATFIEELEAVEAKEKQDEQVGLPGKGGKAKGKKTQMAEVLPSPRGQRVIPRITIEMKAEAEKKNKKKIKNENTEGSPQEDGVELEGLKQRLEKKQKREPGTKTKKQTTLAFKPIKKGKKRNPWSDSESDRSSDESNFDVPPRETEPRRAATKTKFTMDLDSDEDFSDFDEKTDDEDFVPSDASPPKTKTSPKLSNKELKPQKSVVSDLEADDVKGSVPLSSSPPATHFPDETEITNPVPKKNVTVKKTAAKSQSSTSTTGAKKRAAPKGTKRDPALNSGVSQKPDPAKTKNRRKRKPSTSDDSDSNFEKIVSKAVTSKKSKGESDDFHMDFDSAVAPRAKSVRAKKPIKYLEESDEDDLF
# assay.summary: Mammalian Topoisomerase II Inhibition Assay (DNA-topo II complex formation)
# Format: biochemical
# stated.conditions: * Bell-shaped curve; read-out: TopoII Inh. EC50
reported.endpoint: EC50 (µM)
One number for each entry, in µM.

Memo: Cc1cc(-c2c(F)cc3c(=O)c(Cc4ccc5c(c4)OCO5)cn(C4CC4)c3c2F)cc(C)n1 , reported EC50: 34

====

# test.system: human topoisomerase II (Homo sapiens)
# Construct: Topo II was purified from late log phase suspension cultures of HeLa WIS; endogenous in cells; host or cells: HeLa WIS suspension cultures, late log phase (enzyme purified from the cells)
# assay.summary: Mammalian Topoisomerase II Inhibition Assay (DNA-topo II complex formation)
# Assay type: biochemical
# stated.conditions: EC50 = concentration with activity equal to EC50 of reference mAMSA; read-out: TopoII Inh. EC50
pEC50: −log10 of the molar value.
Use 5 as the dividing line for pEC50, with the line itself on the Fulfilled side and lower values as Not fulfilled.

Known results for compounds:
smiles_input=Cc1cc(-c2c(F)cc3c(=O)c(Cc4ccc(F)cc4O)cn(C4CC4)c3c2F)cc(C)n1 test_system="human topoisomerase II (Homo sapiens)" group_label=Fulfilled
smiles_input=Cc1cc(-c2c(F)cc3c(=O)c(Cc4c(O)cc(O)cc4O)cn(C4CC4)c3c2F)cc(C)n1 test_system="human topoisomerase II (Homo sapiens)" group_label=Fulfilled
smiles_input=Cc1cc(-c2c(F)cc3c(=O)c(Cc4cccc(O)c4O)cn(C4CC4)c3c2F)cc(C)n1 test_system="human topoisomerase II (Homo sapiens)" group_label=Fulfilled
smiles_input=COc1cccc(Cc2cn(C3CC3)c3c(F)c(-c4cc(C)nc(C)c4)c(F)cc3c2=O)c1 test_system="human topoisomerase II (Homo sapiens)" group_label="Not fulfilled"
smiles_input=Cc1cc(-c2c(F)cc3c(=O)c(Cc4cccc(O)c4)cn(C4CC4)c3c2F)cc(C)n1 test_system="human topoisomerase II (Homo sapiens)" group_label=Fulfilled

Continue with the next compound.
**Query** # check: pEC50 of Cc1cc(-c2c(F)cc3c(=O)c(Cc4ccccc4NS(C)(=O)=O)cn(C4CC4)c3c2F)cc(C)n1 is greater than or equal to 5
**Result** Fulfilled

====

# assay.summary: In vivo antitumor assay, P388(ip)
# stated.conditions: mouse, in vivo; P388(ip), drug route ip, qd 1,5,9
Please go through the items and note down their MTD.

Answered examples (2):
smiles_input=Cc1cc(-c2c(F)cc3c(=O)c(Cc4ccccc4O)cn(C4CC4)c3c2F)cc(C)n1 experimental_value="456 mg/kg"
smiles_input=Cc1cc(-c2c(F)cc3c(=O)c(Cc4c(O)cccc4O)cn(C4CC4)c3c2F)cc(C)n1 experimental_value="12 mg/kg"

Attention now shifts to the item below.
Memo: Cc1cc(-c2c(F)cc3c(=O)c(Cc4ccc(O)cc4O)cn(C4CC4)c3c2F)cc(C)n1 , reported MTD: 19 mg/kg

====

# test.system: human topoisomerase II (Homo sapiens, UniProt P11388)
# Construct: Topo II was purified from late log phase suspension cultures of HeLa WIS; endogenous in cells; host or cells: HeLa WIS suspension cultures, late log phase (enzyme purified from the cells)
# assay.summary: Mammalian Topoisomerase II Inhibition Assay (DNA-topo II complex formation)
# Format: biochemical
# stated.conditions: EC50 = concentration with activity equal to EC50 of reference mAMSA; read-out: TopoII Inh. EC50
reported.endpoint: pEC50
Numbers only, as −log10 of the molar value.

smiles_input=Cc1cc(-c2c(F)cc3c(=O)c(Cc4ccc(Cl)cc4)cn(C4CC4)c3c2F)cc(C)n1 reported_endpoint=pEC50 experimental_value=5.11

Attention now shifts to the item below.
Memo: COc1cc(Cc2cn(C3CC3)c3c(F)c(-c4cc(C)nc(C)c4)c(F)cc3c2=O)cc(OC)c1O , reported pEC50: 5.12

====

# test.system: human topoisomerase II (Homo sapiens, UniProt P11388)
# Construct: Topo II was purified from late log phase suspension cultures of HeLa WIS; endogenous in cells; host or cells: HeLa WIS suspension cultures, late log phase (enzyme purified from the cells)
# assay.summary: Mammalian Topoisomerase II Inhibition Assay (DNA-topo II complex formation)
# Format: biochemical
# stated.conditions: EC50 = concentration with activity equal to EC50 of reference mAMSA; read-out: TopoII Inh. EC50
EC50 strictly less than 2000 nM = class 1. Otherwise class 0.

Known results for molecules:
molecule="COc1cccc(Cc2cn(C3CC3)c3c(F)c(-c4cc(C)nc(C)c4)c(F)cc3c2=O)c1OC [Example 11]" group_label="class 0"
molecule="CC(=O)Nc1ccccc1Cc1cn(C2CC2)c2c(F)c(-c3cc(C)nc(C)c3)c(F)cc2c1=O [Example 41b]" group_label="class 0"
molecule="Cc1cc(-c2c(F)cc3c(=O)c(Cc4ccc(O)cc4)cn(C4CC4)c3c2F)cc(C)n1 [Example 27]" group_label="class 1"

**Query** # TODO verify EC50 < 2000 nM strictly for this molecule: Cc1cc(-c2c(F)cc3c(=O)c(Cc4cc(O)ccc4O)cn(C4CC4)c3c2F)cc(C)n1 [Example 38]
**Result** class 1

**Query** # TODO verify EC50 < 2000 nM strictly for this molecule: Cc1cc(-c2c(F)cc3c(=O)c(Cc4ccccc4C(=O)O)cn(C4CC4)c3c2F)cc(C)n1 [Example 15]
**Result** class 0

====

# assay.summary: In vivo antitumor assay, P388(ip)
# stated.conditions: mouse, in vivo, iv
reported.endpoint: MTD (mg/kg)
Give bare numbers, in mg/kg.

Memo: Cc1cc(-c2c(F)cc3c(=O)c(Cc4ccc(O)cc4O)cn(C4CC4)c3c2F)cc(C)n1 , reported MTD: 37

====

# test.system: human topoisomerase II (Homo sapiens)
# Construct: Topo II was purified from late log phase suspension cultures of HeLa WIS; endogenous in cells; host or cells: HeLa WIS suspension cultures, late log phase (enzyme purified from the cells)
# assay.summary: Mammalian Topoisomerase II Inhibition Assay (DNA-topo II complex formation)
# Format: biochemical
# stated.conditions: EC50 = concentration with activity equal to EC50 of reference mAMSA; read-out: TopoII Inh. EC50
# Method: Mammalian Topoisomerase II Inhibition Assay Procedure The assay quantitates the amount of topo II covalently complexed by DNA at equilibrium during a topo II reaction. […] A SDS/protein precipitate was formed by the addition of 28 μl 2.5M KCl followed by chilling on ice for a minimum of 10 minutes. […] After drying, CPM was determined by liquid scintillation counting with 5 ml Biofluor (NEN Research Products) or Readisafe (Beckman Instruments Inc.) cocktail. […]
pEC50: −log10 of the molar value.
Use 6 as the dividing line for pEC50, with the line itself on the fulfilled side and lower values as not fulfilled.

Known results for compounds:
compound="COc1ccc(Cc2cn(C3CC3)c3c(F)c(-c4cc(C)nc(C)c4)c(F)cc3c2=O)c(OC)c1 [Example 12]" group_label="not fulfilled"
compound="Cc1cc(-c2c(F)cc3c(=O)c(Cc4cccc(F)c4OCc4ccccc4)cn(C4CC4)c3c2F)cc(C)n1 [Example 20]" group_label="not fulfilled"
compound="COc1cc(OC)c(Cc2cn(C3CC3)c3c(F)c(-c4cc(C)nc(C)c4)c(F)cc3c2=O)c(OC)c1 [Example 14]" group_label="not fulfilled"

Continue with the next compound.
**Query** # check: pEC50 of Cc1cc(-c2c(F)cc3c(=O)c(Cc4ccc(O)c(C)c4O)cn(C4CC4)c3c2F)cc(C)n1 [Example 36] is greater than or equal to 6
**Result** fulfilled

====

# test.system: human topoisomerase II (Homo sapiens, UniProt P11388)
# Construct: Topo II was purified from late log phase suspension cultures of HeLa WIS; endogenous in cells; host or cells: HeLa WIS suspension cultures, late log phase (enzyme purified from the cells)
# assay.summary: Mammalian Topoisomerase II Inhibition Assay (DNA-topo II complex formation)
# Assay type: biochemical
# stated.conditions: EC50 = concentration with activity equal to EC50 of reference mAMSA; read-out: TopoII Inh. EC50
pEC50: −log10 of the molar value.
Use 6 as the dividing line for pEC50, with the line itself on the yes (1) side and lower values as no (0).

Known results for molecules:
molecule=Cc1cc(-c2c(F)cc3c(=O)c(Cc4c(CO)cnc(C)c4O)cn(C4CC4)c3c2F)cc(C)n1 group_label="no (0)"
molecule=Cc1cc(-c2c(F)cc3c(=O)c(Cc4ccc(O)c(O)c4)cn(C4CC4)c3c2F)cc(C)n1 group_label="yes (1)"
molecule="Cc1cc(-c2c(F)cc3c(=O)c(Cc4ccccc4N)cn(C4CC4)c3c2F)cc(C)n1 [Example 41a]" group_label="no (0)"

Continue with the next molecule.
**Query** # check: pEC50 of COc1cccc(OC)c1Cc1cn(C2CC2)c2c(F)c(-c3cc(C)nc(C)c3)c(F)cc2c1=O is greater than or equal to 6
**Result** no (0)
